- assay_summary: chemical genetic growth profiling, strain panel (AID 1159580);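 note: tested at 20 µM; growth read once vehicle control cultures reached saturation at 30 °C; lower values mean less growth of the strain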
- condition_label: S. cerevisiae deletion strains, growth OD, locus YNL006W, strain LST8
Screen size: about 5,500 compounds; about 2,000 (36%) were called active. Another 18% or so got no clear call; they are omitted. Cut-off read from the data, not from the text of the source: active = normalized growth mostly below about 0.91 (no sharp cut-off); inconclusive = no clear call, values can overlap the other calls; inactive = mostly above about 0.92. The list shows a part of the results.
Please reply with one of these outcomes: active, inactive

So what was the verdict on "CCCCc1ccc(N=CNO)c(C)c1" in this test?
inactive

Please give the result for "N#C/C(=N/Nc1ccc(C(F)(F)F)cc1)C(=O)C1CC1" too.
inactive

Please give the result for "N#C/C(=N/Nc1ccc(Cl)cc1)C(N)=S" too.
active

Please give the result for "CSC(SC)=C(C#N)C(=O)c1ccccc1Cl" too.
active

Please give the result for "Cc1nc([N+](=O)[O-])cn1CC(=O)c1ccc(Cl)cc1" too.
inactive

Please give the result for "Cc1nn(Cc2cccc(C(=O)O/N=C(/N)c3ccc(Cl)cc3)c2)c(C)c1Br" too.
inactive

Please give the result for "COc1cccc(C(=O)C(C#N)=C(SC)SC)c1" too.
active

Please give the result for "N/C(=N/OC(=O)c1ccccc1Cl)c1cccc(CS(=O)(=O)c2ccc(Cl)cc2)c1" too.
inactive

Please give the result for "Cc1c(NCN2C(=O)CCC2=O)cc2c(c1[N+](=O)[O-])C(C)(C)CC2(C)C" too.
inactive

Please give the result for "CC(/C=C/c1ccccc1)=N/OC(=O)c1ccccc1Cl" too.
inactive

Please give the result for "CCCCCc1ccc(-c2nc(SCC(C)=O)n[nH]2)cc1" too.
inactive

Please give the result for "N#C/C(=C\C=C\c1ccccc1)c1nc2ccccc2[nH]1" too.
inactive

Please give the result for "COc1ccc(/C(C#N)=C2C=C/C(=N/O)C(Cl)=C\2)cc1" too.
inactive

Please give the result for "CCCCCc1ccc(S(=O)(=O)Nc2ncc(C)cc2Br)cc1" too.
inactive

Please give the result for "N#Cc1c(N)sc2c1CCc1ccccc1-2" too.
active

Please give the result for "N#C/C(=N/Nc1ccc(Cl)cc1)C(=O)C1CC1" too.
active

Please give the result for "Fc1ccc(Nc2nc(-c3ccc(F)c(F)c3)cs2)c(F)c1" too.
active
